Collected logP values appear next to each entry.
assay comment: Octanol-water partition coefficient, logP of the compound
Assay type: physicochemical

| structure smiles string | logP |
| --- | --- |
| O=C(NCc1ccc(F)cc1)c1cc2c(F)cc(F)cc2[nH]1 | 3.23 |
| O=C(NCCc1ccc2c(c1)OCO2)c1cc2c(F)cc(F)cc2[nH]1 | 3.02 |
| O=C(NCc1ccccc1)c1cc2c(F)cc(F)cc2[nH]1 | 3.17 |
| Cc1c(C(=O)c2cccc3ccccc23)c2cccc3c2n1[C@@H](CN1CCOCC1)CO3 | 4.13 |
| O=C(Nc1nc2ccccc2[nH]1)c1cc2c(F)cc(F)cc2[nH]1 | 2.69 |

----------
assay comment: Antiproliferative activity against human HFF-1 cells assessed as cell growth inhibition incubated for 72 hrs by MTT assay
Type: toxicity, cell-based

| structure smiles string | unit string | IC50 at 72 h |
| --- | --- | --- |
| Cc1c(C(=O)c2cccc3ccccc23)c2cccc3c2n1[C@@H](CN1CCOCC1)CO3 | µM | 1.82 |
| O=C(NC12CC3CC(CC(C3)C1)C2)c1c[nH]c2c(Cl)ccc(Cl)c2c1=O | µM | 3.85 |
| O=C(Nc1nc2ccccc2[nH]1)c1cc2c(F)cc(F)cc2[nH]1 | µM | 3.03 |
| O=C(NCc1ccc(F)cc1)c1cc2c(F)cc(F)cc2[nH]1 | µM | 40 |
| O=C(NCc1ccccc1)c1cc2c(F)cc(F)cc2[nH]1 | µM | 65 |
| O=C(NCCc1ccc2c(c1)OCO2)c1cc2c(F)cc(F)cc2[nH]1 | µM | 6.98 |

----------
assay target: Cannabinoid receptor 1 (Homo sapiens, UniProt P21554)
Sequence (P21554 whole entry): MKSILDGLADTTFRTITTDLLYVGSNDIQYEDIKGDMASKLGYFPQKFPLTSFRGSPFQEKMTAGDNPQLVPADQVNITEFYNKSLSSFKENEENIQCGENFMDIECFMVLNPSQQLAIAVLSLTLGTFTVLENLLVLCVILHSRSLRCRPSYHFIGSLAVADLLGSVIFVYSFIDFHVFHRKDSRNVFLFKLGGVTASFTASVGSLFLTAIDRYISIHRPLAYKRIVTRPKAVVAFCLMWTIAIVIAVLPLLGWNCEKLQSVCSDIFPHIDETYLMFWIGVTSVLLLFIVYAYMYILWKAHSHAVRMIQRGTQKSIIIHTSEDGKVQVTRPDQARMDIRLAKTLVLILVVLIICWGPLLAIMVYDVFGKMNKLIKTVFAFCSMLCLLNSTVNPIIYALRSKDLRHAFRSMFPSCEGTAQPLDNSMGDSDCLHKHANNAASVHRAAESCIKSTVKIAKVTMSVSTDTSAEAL
assay comment: Antagonist activity at human CB1R expressed in mouse AtT20 cells by FLIPR membrane potential assay

| structure smiles string | unit string | IC50 |
| --- | --- | --- |
| O=C(NCCc1ccc2c(c1)OCO2)c1cc2c(F)cc(F)cc2[nH]1 | nM | 373 |

----------
Collected Activity values appear next to each entry.
assay target: Cannabinoid receptor 2 (Homo sapiens)
Sequence (P34972 whole entry): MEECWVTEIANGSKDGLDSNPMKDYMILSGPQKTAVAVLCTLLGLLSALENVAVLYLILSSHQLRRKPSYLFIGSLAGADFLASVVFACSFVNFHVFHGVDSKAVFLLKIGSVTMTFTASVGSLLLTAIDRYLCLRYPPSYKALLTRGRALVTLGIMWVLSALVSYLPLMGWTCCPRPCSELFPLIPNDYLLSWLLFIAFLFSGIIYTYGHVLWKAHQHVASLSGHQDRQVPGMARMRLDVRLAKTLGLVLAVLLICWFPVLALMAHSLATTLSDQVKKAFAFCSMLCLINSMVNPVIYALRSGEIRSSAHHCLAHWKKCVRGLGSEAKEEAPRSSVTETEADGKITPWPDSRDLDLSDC
assay comment: Agonist activity at human CB2R expressed in mouse AtT20 cells at 10 uM by FLIPR membrane potential assay
Type: functional, cell-based

| structure smiles string | assay target | Activity |
| --- | --- | --- |
| O=C(NCc1ccccc1)c1cc2c(F)cc(F)cc2[nH]1 | Cannabinoid receptor 2 (Homo sapiens) | < 50% |
| O=C(NCc1ccc(F)cc1)c1cc2c(F)cc(F)cc2[nH]1 | Cannabinoid receptor 2 (Homo sapiens) | < 50% |
| O=C(Nc1nc2ccccc2[nH]1)c1cc2c(F)cc(F)cc2[nH]1 | Cannabinoid receptor 2 (Homo sapiens) | < 50% |
| O=C(c1cc2c(F)cc(F)cc2[nH]1)N1CCN(C(=O)C23CC4CC(CC(C4)C2)C3)CC1 | Cannabinoid receptor 2 (Homo sapiens) | < 50% |
| O=C(NCCc1ccc2c(c1)OCO2)c1cc2c(F)cc(F)cc2[nH]1 | Cannabinoid receptor 2 (Homo sapiens) | < 50% |
| O=C(NC12CC3CC(CC(C3)C1)C2)c1c[nH]c2c(Cl)ccc(Cl)c2c1=O | Cannabinoid receptor 2 (Homo sapiens) | < 50% |

----------
Collected pIC50 values appear next to each entry.
assay comment: Antiproliferative activity against human BT-12 cells assessed as cell growth inhibition incubated for 72 hrs by MTT assay
Format: functional, cell-based
test conditions: BT-12, 72 h
pIC50: −log10 of the molar value.
recorded endpoint: pIC50

| structure smiles string | recorded endpoint | observed measurement |
| --- | --- | --- |
| O=C(NCc1ccc(F)cc1)c1cc2c(F)cc(F)cc2[nH]1 | pIC50 | 5.05 |
| Cc1c(C(=O)c2cccc3ccccc23)c2cccc3c2n1[C@@H](CN1CCOCC1)CO3 | pIC50 | 5.03 |
| O=C(NCc1ccccc1)c1cc2c(F)cc(F)cc2[nH]1 | pIC50 | 5.13 |
| O=C(NC12CC3CC(CC(C3)C1)C2)c1c[nH]c2c(Cl)ccc(Cl)c2c1=O | pIC50 | 5.44 |
| O=C(NCCc1ccc2c(c1)OCO2)c1cc2c(F)cc(F)cc2[nH]1 | pIC50 | 5.39 |
| O=C(Nc1nc2ccccc2[nH]1)c1cc2c(F)cc(F)cc2[nH]1 | pIC50 | 5.75 |

From: ChEMBL document CHEMBL5107937
